Ref: BigSolDB 2.1

# TEST PARAMETERS: in DMF, 283.15 K
VALUE KIND: solubility (mole fraction)

1. N#CCC(N)=O	0.271

###

# TEST PARAMETERS: in acetonitrile, 313.15 K
VALUE KIND: solubility (mole fraction)

1. N#CCC(N)=O	0.0671

###

# TEST PARAMETERS: in water, 278.15 K
VALUE KIND: solubility (mole fraction)

1) N#CCC(N)=O	0.0136

###

# TEST PARAMETERS: in methyl acetate, 278.15 K
VALUE KIND: solubility (mole fraction)

1) N#CCC(N)=O	0.0137

###

# TEST PARAMETERS: in methyl acetate, 318.15 K
VALUE KIND: solubility (mole fraction)

1. N#CCC(N)=O	0.0467

###

# TEST PARAMETERS: in acetonitrile, 303.15 K
VALUE KIND: solubility (mole fraction)

1) N#CCC(N)=O	0.0469

###

# TEST PARAMETERS: in acetone, 318.15 K
VALUE KIND: solubility (mole fraction)

1) N#CCC(N)=O	0.0956

###

# TEST PARAMETERS: in acetonitrile, 308.15 K
VALUE KIND: solubility (mole fraction)

1) N#CCC(N)=O	0.0553

###

# TEST PARAMETERS: in water, 313.15 K
VALUE KIND: solubility (mole fraction)

1) N#CCC(N)=O	0.0887

###

# TEST PARAMETERS: in n-butanol, 283.15 K
VALUE KIND: solubility (mole fraction)

1. N#CCC(N)=O	0.00298

###

# TEST PARAMETERS: in ethyl acetate, 283.15 K
VALUE KIND: solubility (mole fraction)

1) N#CCC(N)=O	0.00602

###

# TEST PARAMETERS: in water, 283.15 K
VALUE KIND: solubility (mole fraction)

1) N#CCC(N)=O	0.0179

###

# TEST PARAMETERS: in water, 303.15 K
VALUE KIND: solubility (mole fraction)

1. N#CCC(N)=O	0.0519

###

# TEST PARAMETERS: in THF, 283.15 K
VALUE KIND: solubility (mole fraction)

1. N#CCC(N)=O	0.0128

###

# TEST PARAMETERS: in water, 298.15 K
VALUE KIND: solubility (mole fraction)

1) N#CCC(N)=O	0.0405

###

# TEST PARAMETERS: in 1,4-dioxane, 308.15 K
VALUE KIND: solubility (mole fraction)

1) N#CCC(N)=O	0.0278

###

# TEST PARAMETERS: in 1,4-dioxane, 313.15 K
VALUE KIND: solubility (mole fraction)

1. N#CCC(N)=O	0.0342

###

# TEST PARAMETERS: in acetone, 298.15 K
VALUE KIND: solubility (mole fraction)

1. N#CCC(N)=O	0.0527

###

# TEST PARAMETERS: in ethyl acetate, 318.15 K
VALUE KIND: solubility (mole fraction)

1) N#CCC(N)=O	0.017

###

# TEST PARAMETERS: in ethanol, 288.15 K
VALUE KIND: solubility (mole fraction)

1) N#CCC(N)=O	0.0087

###

# TEST PARAMETERS: in methanol, 308.15 K
VALUE KIND: solubility (mole fraction)

1) N#CCC(N)=O	0.0482
